details: pH 6.8
Measure Name: aqueous solubility (µg/mL)

Known aqueous solubility results, listed for orientation:
[
  {
    "Compound": "CCn1ncc(CN2CCC(c3nc(N(C)C)ncc3-c3ccc(OC)cc3)CC2)c1C",
    "Reading": 52.6
  },
  {
    "Compound": "C#CCN1CCC(c2nc(Cc3noc(C)n3)no2)CC1",
    "Reading": 49.5
  },
  {
    "Compound": "CCC(C)(C)NC(=O)C1(Cc2ccc(-c3cc(F)ccc3OC)cc2)CCOCC1",
    "Reading": 12
  },
  {
    "Compound": "Cc1occc1C(=O)NCC(=O)Nc1nc2cc(Cl)ccc2n1C",
    "Reading": 27.2
  },
  {
    "Compound": "CN1C(=O)[C@@H](NC(=O)c2nnc(Cc3ccccc3)[nH]2)COc2ccccc21",
    "Reading": 41.5
  }
]

I. CNc1nc(N2CCCCC2)nc(N2CCCCC2)n1
II. CC(C)(C)OC(=O)N1CC=C(CCC(=O)NO)C1
III. CCCCCCNc1ncnc2[nH]ccc12
IV. Cc1c(CN2CCC(Nc3ncnc4sc(CC(F)(F)F)cc34)CC2)ccc2c1cc(C#N)n2Cc1cn[nH]c1
V. CC(C)(C)c1cc(NC(=O)Nc2ccc(-c3cn4c(n3)sc3cc(OCCN5CCOCC5)ccc34)cc2)no1
Returns the items ordered by aqueous solubility, from maximum to minimum. List the labels, following the order given in the request.
II, I, III, IV, V

A. O=C(O)CNc1nc(-c2ccccc2)nc2ccccc12
B. O=C(O)c1cccc(N2CCC(Oc3ccc(Cl)cc3)CC2)n1
Pick one: A or B . Which one has the lower reported aqueous solubility? Please identify the chosen entry by its label.
A
(A: 25.4 µg/mL, B: 45 µg/mL)

a. N#CCCCN1CCN(c2cc(C#N)ccn2)CC1
b. CC1=NN(c2ccc(F)cc2)C(=O)/C1=C(/C)Nc1ccc(S(N)(=O)=O)cc1
c. C=CC(=O)N(C)CCOc1c(N)ncnc1-c1cc(F)cc(NC(=O)c2ccc(C3CC3)cc2F)c1C
// ranking: key=aqueous solubility, reverse=True // ordering of labels required in reply
c, a, b
(c: 58.9 µg/mL, a: 41.2 µg/mL, b: 28.4 µg/mL)

A. CC(=O)N1CCC(CCNc2ccc3ccc(F)cc3n2)CC1
B. c1ccc2c(c1)nnn2Cc1ccc2c(c1)OCO2
Given the listed records, identify the one among A and B with higher aqueous solubility. Indicate your choice by writing its label.
A
(A: 46.2 µg/mL, B: 0.96 µg/mL)

1. Cc1noc(C(C)C)c1C(=O)Nc1ccccn1
2. CC1(C)CCN(C(=O)NCCOc2cccnc2)C1
Two entries are listed, 1 and 2 . Which one carries the higher aqueous solubility? Your choice should be expressed through its label.
1
(1: 58.3 µg/mL, 2: 39.8 µg/mL)

I. COc1cc2c(cc1OC)CN(C(=O)C1CCCN(C(C)=O)C1)CC2 (centres undefined)
II. O=C(O)c1c2ccccc2nn1Cc1ccccc1
Pick one: I or II . Which one has the lower reported aqueous solubility? Provide the label of your selected option as the answer.
II
(II: 37.2 µg/mL, I: 55 µg/mL)
